Record set: IC50 | JNK2 (Homo sapiens (Human), UniProt P45984) | literature, multiple sources.

1. CS(=O)(=O)Nc1ccc(F)c(C(=O)c2c[nH]c3ncc(-c4ccccc4)cc23)c1F ≤ 10 µM
2. O=C(Cc1cccc2ncsc12)Nc1scc(Br)c1-c1ncn[nH]1 0.1 to 10 µM
3. Cn1cnc(-c2c(Cl)csc2NC(=O)CN2C(=O)CCc3ncccc32)n1 < 0.1 µM

Supply IC50 measured with JNK2 (Homo sapiens (Human), UniProt P45984) for "CS(=O)(=O)C1CCN(c2cccc3c2ccn3-c2ccnc(N[C@H]3CC[C@H](C(=O)N4CCN(C5CC5)CC4)CC3)n2)CC1" . 0.0296 µM

State the measured IC50 (JNK2 (Homo sapiens (Human), UniProt P45984)) of "N#Cc1csc(NC(=O)CN2C(=O)CCc3ncccc32)c1-c1nc[nH]n1" < 0.1 µM

Supply IC50 measured with JNK2 (Homo sapiens (Human), UniProt P45984) for "O=C(Cc1cc(F)cc2ncccc12)Nc1scc(Br)c1-c1ncn[nH]1" . 0.1 to 10 µM

Answer briefly: IC50 recorded on JNK2 (Homo sapiens (Human), UniProt P45984) for "N#Cc1csc(NC(=O)Cn2c(=O)ccc3cc(C(F)(F)F)ccc32)c1-c1ncco1" < 0.1 µM

Please indicate recorded IC50 of "Cc1csc(NC(=O)CN2C(=O)CCc3ccccc32)c1-c1ncn[nH]1" measured with JNK2 (Homo sapiens (Human), UniProt P45984). < 10 µM

Report value only: IC50, JNK2 (Homo sapiens (Human), UniProt P45984), "Cn1cnc(-c2c(C#N)csc2NC(=O)Cc2cccc3ncccc23)n1" < 0.1 µM
